// provenance: PubChem BioAssay (NCATS)

- Assay: Quantitative High-Throughput drug screen in 47 multiple myeloma cell lines against the NCATS MIPE library collection: EJM_DSMZ cell viability assay (AID 1918926; also: nearly all actives have a fitted effect of over 30% in size)
- Recorded Conditions: EJM myeloma cell viability, CellTiter-Glo ATP, 48 h; series mostly up to 45.8 µM
Records with an inconclusive call do not appear. Calls of active or inactive are those of the source. Calls follow the shape of the dose curve; as a rule, active = well fitted cell-killing curve with a large enough effect; inconclusive = small, poorly fitted or top-dose-only effect, or effect the other way; inactive = no such curve, though single readings can be large or run the other way.
Valid outcomes are listed here; reply with one: yes (1) (active), no (0) (inactive)

CC(=O)NC(CS)C(=O)O (configuration not stated)	no (0)
OCc1ccccc1O[C@@H]1O[C@H](CO)[C@H](O)[C@H](O)[C@H]1O	yes (1)
NC(=O)N1CCC(CC(=O)N2CCC([C@H]3c4ncc(Br)cc4CCc4cc(Cl)cc(Br)c43)CC2)CC1	yes (1)
Cn1cnc2c(F)c(Nc3ccc(Br)cc3F)c(C(=O)NOCCO)cc21	no (0)

Which result was noted for this compound in the test: OC[C@H]1OC(O)C[C@@H](O)[C@H]1O (some centres not stated)
no (0)

Which result was noted for this compound in the test: NC(=O)c1ncn([C@@H]2O[C@H](CO)[C@@H](O)[C@@H]2O)c1O
no (0)

Which result was noted for this compound in the test: O=S(=O)(O)CCSSCCS(=O)(=O)O
no (0)
